- Tested on: PPARg:RXRa DBDmut IVT, anti-RXR (DBD mutation: RXRa K156A/R161A, NR concentration 270 nM, RXRa partner concentration 90 nM)
- method: PBM binding z-score (relative to random genomic background probes); higher = stronger binding; sequences stand for … in GC…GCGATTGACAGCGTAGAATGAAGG
observable: PBM binding z-score
Lab note: record just the number, no unit beside it.

(Q) Recorded PBM binding z-score for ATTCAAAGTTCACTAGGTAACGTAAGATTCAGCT , please?
(A) 2.64

(Q) PBM binding z-score for CAAACTAGGTCAAAGATCAAAGTCGAGCCAACCA ?
(A) 8.07

(Q) For the sequence shown here, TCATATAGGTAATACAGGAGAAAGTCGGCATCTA , give the reported PBM binding z-score.
(A) 4.09

(Q) Reported PBM binding z-score, sequence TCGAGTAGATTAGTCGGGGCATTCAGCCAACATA : ____
(A) 0.609

(Q) I would be grateful if you could share the reported PBM binding z-score for GGAACGTGGGCAAAGTTGATAGCATCTGTCGACG .
(A) -0.0354

(Q) Quick one: PBM binding z-score of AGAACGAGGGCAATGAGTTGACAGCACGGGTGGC ?
(A) 3.68

(Q) Would you kindly share the measured PBM binding z-score for AGAACGAGGGCACGCTGAGTTGATAGAAGAGTAG ?
(A) 3.93

(Q) Find the recorded PBM binding z-score belonging to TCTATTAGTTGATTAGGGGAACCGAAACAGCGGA and report it.
(A) 2.55

(Q) Using the record for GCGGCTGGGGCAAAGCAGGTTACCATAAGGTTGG , report its PBM binding z-score.
(A) 0.344

(Q) Could you share which PBM binding z-score value was measured for GCTTACGGGTCAAAGCTTATAGCATGAATAGAAT ?
(A) 4.24

(Q) Requested read-out: PBM binding z-score. Entry: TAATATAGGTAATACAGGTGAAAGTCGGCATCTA
(A) 5.72

(Q) Entry under review: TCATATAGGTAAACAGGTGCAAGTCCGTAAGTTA . Reported PBM binding z-score?
(A) 4.3

###

- Tested on: FXR:RXRa (NR concentration 270 nM, RXRa partner concentration 90 nM)
- method: PBM binding z-score (relative to random genomic background probes); higher = stronger binding; sequences stand for … in GC…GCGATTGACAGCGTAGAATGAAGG
Our labelling divides records by PBM binding z-score into ranges: 1 (below 0.5), 2 (0.5 to below 3), 3 (3 or more)

(Q) For the record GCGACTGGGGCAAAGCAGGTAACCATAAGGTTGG , report the class its PBM binding z-score corresponds to.
(A) 1

(Q) Looking at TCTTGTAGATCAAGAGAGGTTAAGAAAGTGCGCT , which class would you pick?
(A) 2

(Q) Band assignment needed for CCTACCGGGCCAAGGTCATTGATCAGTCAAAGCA please.
(A) 3

(Q) Kindly state the category for this sequence: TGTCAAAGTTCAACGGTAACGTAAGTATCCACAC
(A) 3

(Q) Class (by measured PBM binding z-score) for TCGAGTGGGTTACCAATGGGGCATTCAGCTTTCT
(A) 1

(Q) Consider ATCTCTAGGTAAGACTAAGTTCAGTGAAGAACGC . To which PBM binding z-score class does it belong?
(A) 2

(Q) Which class does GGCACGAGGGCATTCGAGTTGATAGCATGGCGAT fall in?
(A) 2

(Q) Note: place this sequence into its band. Item: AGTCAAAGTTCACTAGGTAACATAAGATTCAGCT
(A) 3

(Q) Returns: class label. Input: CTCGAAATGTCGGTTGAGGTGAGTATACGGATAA
(A) 1

(Q) Please indicate the class for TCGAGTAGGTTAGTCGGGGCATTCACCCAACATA based on its PBM binding z-score.
(A) 1

(Q) For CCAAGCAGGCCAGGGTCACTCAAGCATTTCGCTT , which PBM binding z-score bin applies?
(A) 2

(Q) Hi there! Could you help me figure out the category for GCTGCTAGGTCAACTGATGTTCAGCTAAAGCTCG please?
(A) 3

src = the supplement of paper PMC6555819
